Data origin: patent US9540350B2

Tested on: A. fumigatus ATCC 46645
Experiment: Antifungal susceptibility, broth dilution MIC (CLSI M38-A)
Assay type: cell-based
Settings: Aspergillus fumigatus, ATCC46645; A. fumigatus ATCC 46645; broth dilution, RPMI 1640 with MOPS, 48 hours; read-out: Activity against organisms (MIC50) Afm01
// reported MIC50 for each item listed

## Task Output MIC50 of OC(Cn1cncn1)(Cn1cc(COc2ccccc2)nn1)c1ccc(F)cc1F (stereo not drawn)
## Result > 128 µg/mL

---

// reported MIC50 for each item listed
Tested on: C. krusei ATCC 6258
Experiment: Antifungal susceptibility, broth dilution MIC (CLSI M27-A2)
Format: cell-based, Candida krusei
Conditions: Pichia kudriavzevii, ATCC6258; C. krusei ATCC 6258; broth dilution, RPMI 1640 with MOPS, 48 hours; read-out: Activity against organisms (MIC50) Ck01

## Task Output MIC50 of COc1ccc(/C=C/C(=O)c2ccc(O)cc2)cc1 [Compound 9A-2]
## Result > 32 µg/mL

## Task Output MIC50 of CCCN1CCN(c2ccc(C(C)=O)cc2)CC1 [Compound 11A-1]
## Result > 128 µg/mL

## Task Output MIC50 of O=C(/C=C/c1cccs1)c1ccc(O)cc1 [Compound 10A-1]
## Result > 32 µg/mL

## Task Output MIC50 of C#CCOc1ccc(/C=C/C(=O)c2ccc(N3CCN(CCCC)CC3)cc2)cc1 [Compound 6A-2]
## Result > 4 µg/mL

## Task Output MIC50 of C#CCOc1ccc(/C=C/C(=O)c2ccc(N3CCN(Cc4ccc(OC)cc4)CC3)cc2)cc1 [Compound 6A-4]
## Result > 8 µg/mL

## Task Output MIC50 of OCc1cn(CC(O)(Cn2cncn2)c2ccc(F)cc2F)nn1 (centres unmarked) [Compound 8A-1]
## Result > 128 µg/mL

## Task Output MIC50 of CCCCN1CCN(c2ccc(C(C)=O)cc2)CC1 [Compound 11A-2]
## Result > 64 µg/mL

## Task Output MIC50 of COc1ccc(/C=C/C(=O)c2ccc(OC)cc2)cc1 [Compound 9A-1]
## Result > 4 µg/mL

---

Test system: C. tropicalis ATCC 750
Assay: Antifungal susceptibility, broth dilution MIC (CLSI M27-A2)
Format: cell-based, Candida tropicalis
Settings: Candida tropicalis, ATCC750; C. tropicalis ATCC 750; broth dilution, RPMI 1640 with MOPS, 48 hours; read-out: Activity against organisms (MIC50) Ct01
result_type: MIC50

Worked cases, MIC50 given:
molecule	result_type	reading
O=C(/C=C/c1cccs1)c1ccc(O)cc1 [Compound 10A-1]	MIC50	> 32 µg/mL
COc1ccc(/C=C/C(=O)c2ccc(O)cc2)cc1 [Compound 9A-2]	MIC50	> 32 µg/mL

## Task Output MIC50 of CCCCCCCCCC/C=C/c1ccc(OCc2cn(CC(O)(Cn3cncn3)c3ccc(F)cc3F)nn2)cc1 (stereo not drawn) [Compound 1C-3]
## Result > 2 µg/mL

---

// reported MIC50 for each item listed
Test system: A. fumigatus ATCC 46645
Assay: Antifungal susceptibility, broth dilution MIC (CLSI M38-A)
Assay type: cell-based
Conditions: Aspergillus fumigatus, ATCC46645; A. fumigatus ATCC 46645; broth dilution, RPMI 1640 with MOPS, 48 hours; read-out: Activity against organisms (MIC50) Afm01

Worked cases, MIC50 given:
compound	MIC50
CC(=O)Nc1ccc(OCc2cn(CC(O)(Cn3cncn3)c3ccc(F)cc3F)nn2)cc1 (stereo not shown) [Compound 1D-4]	> 128 µg/mL
O=C(/C=C/c1cccs1)c1ccc(O)cc1 [Compound 10A-1]	> 32 µg/mL
CCCC/C=C/c1ccc(OCc2cn(CC(O)(Cn3cncn3)c3ccc(F)cc3F)nn2)cc1 (stereo not shown) [Compound 1C-2]	4 µg/mL
C#CCOc1ccc(/C=C/C(=O)c2ccc(N3CCN(CCCC)CC3)cc2)cc1 [Compound 6A-2]	> 4 µg/mL
CCCCCN1CCN(c2ccc(C(=O)/C=C/c3ccc(OCc4cn(CC(O)(Cn5cncn5)c5ccc(F)cc5F)nn4)cc3)cc2)CC1 (stereo not shown) [Compound 1B-7]	> 2 µg/mL

## Task Output MIC50 of CCCCN1CCN(c2ccc(C(C)=O)cc2)CC1 [Compound 11A-2]
## Result > 64 µg/mL

## Task Output MIC50 of O=C(/C=C/c1ccc(O)cc1)c1ccc(O)cc1 [Compound 9A-5]
## Result 16 µg/mL
